assay: Pseudomonas biofilm growth suppression – PAO1 strain, BacTiter-Glo luminescence, LB-PBS, primary screen (AID 1144); conditions: P. aeruginosa PAO1 biofilm, 12 h, higher = more signal
Answer NOT MET if z-score is under -0.5, and MET if it is -0.5 or more.

Example results:
Is the recorded value of z-score equal to or greater than -0.5 for this molecule? C=CCOC(=O)[C@@H]1[C@H]2C(=O)O[C@H](c3ccccc3)[C@H](c3ccccc3)N2[C@H](c2ccc(OCCOC(=O)[C@@H]3C[C@@H]4C(=O)N[C@@H](CCCCNC(C)=O)C(=O)N4[C@@H]3c3ccc(O)cc3)cc2)[C@@]12C(=O)Nc1ccc(I)cc12
MET

Is the recorded value of z-score equal to or greater than -0.5 for this molecule? COc1cc(C(O)C2C=CC3C(=O)N(C)C(=O)C3N2NC(=O)OC(C)(C)C)cc(OC)c1OC (stereo unspecified)
MET

Is the recorded value of z-score equal to or greater than -0.5 for this molecule? COC(=O)C(CC#Cc1ccc2c(c1)[C@]1(C(=O)N2)[C@H](c2ccc(OCCO)cc2)N2[C@H](c3ccccc3)[C@H](c3ccccc3)OC(=O)[C@H]2[C@@H]1C(=O)O)C(=O)OC
NOT MET

Is the recorded value of z-score equal to or greater than -0.5 for this molecule? COc1ccc(C(=O)Nc2ccc(CN3C(=O)[C@@]4(O[C@@H](CC(=O)N5Cc6ccccc6C[C@H]5CO)[C@H]([Si](C)(C)c5ccc(OC)cc5)[C@H]4C)c4ccccc43)cc2)cc1
MET

Continuing:
Is the recorded value of z-score equal to or greater than -0.5 for this molecule? COCCOC(=O)N1C(=O)[C@@]2(c3cc(C#CC4(O)CCCCCC4)ccc31)[C@H](C(=O)NC[C@H](O)c1ccccc1)[C@H]1C(=O)O[C@H](c3ccccc3)[C@H](c3ccccc3)N1[C@@H]2c1ccc(OCCO)cc1
MET

Is the recorded value of z-score equal to or greater than -0.5 for this molecule? C=C(CCCC)/C(=C/C[C@H](OC(=O)c1ccncc1)c1ccc(CO)o1)c1cc(C(=O)OC)ccc1OC
NOT MET
